Biological target: human integrin αvβ6 (Homo sapiens (Human), UniProt P06756+P18564)
Sequence (P06756 31-992): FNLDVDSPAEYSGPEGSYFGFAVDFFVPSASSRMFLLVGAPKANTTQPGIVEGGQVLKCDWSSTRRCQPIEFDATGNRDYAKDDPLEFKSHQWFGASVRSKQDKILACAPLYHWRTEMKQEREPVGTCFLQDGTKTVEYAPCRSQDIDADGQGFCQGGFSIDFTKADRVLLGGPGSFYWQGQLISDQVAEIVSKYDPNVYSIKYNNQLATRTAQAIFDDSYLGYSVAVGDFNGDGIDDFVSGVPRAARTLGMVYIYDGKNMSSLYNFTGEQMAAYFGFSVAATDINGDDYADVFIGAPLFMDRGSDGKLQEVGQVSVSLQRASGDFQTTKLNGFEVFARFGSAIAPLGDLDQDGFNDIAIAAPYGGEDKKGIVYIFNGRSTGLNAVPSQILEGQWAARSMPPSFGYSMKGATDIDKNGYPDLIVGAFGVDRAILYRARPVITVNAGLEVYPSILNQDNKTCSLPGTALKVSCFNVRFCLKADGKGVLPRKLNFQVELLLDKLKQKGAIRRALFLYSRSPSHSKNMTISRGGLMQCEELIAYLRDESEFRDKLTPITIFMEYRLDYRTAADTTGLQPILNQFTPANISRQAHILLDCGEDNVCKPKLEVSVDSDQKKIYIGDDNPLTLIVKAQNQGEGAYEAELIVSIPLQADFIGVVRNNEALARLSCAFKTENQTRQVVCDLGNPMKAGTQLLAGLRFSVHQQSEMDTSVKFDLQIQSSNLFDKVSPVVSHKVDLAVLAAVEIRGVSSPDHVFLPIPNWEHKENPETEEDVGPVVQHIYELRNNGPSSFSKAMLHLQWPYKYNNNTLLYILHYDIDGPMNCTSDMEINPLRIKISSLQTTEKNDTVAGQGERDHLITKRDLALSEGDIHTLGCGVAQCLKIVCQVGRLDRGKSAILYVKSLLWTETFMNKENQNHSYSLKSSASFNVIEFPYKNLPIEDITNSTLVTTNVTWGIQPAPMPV
Sequence (P18564 22-707): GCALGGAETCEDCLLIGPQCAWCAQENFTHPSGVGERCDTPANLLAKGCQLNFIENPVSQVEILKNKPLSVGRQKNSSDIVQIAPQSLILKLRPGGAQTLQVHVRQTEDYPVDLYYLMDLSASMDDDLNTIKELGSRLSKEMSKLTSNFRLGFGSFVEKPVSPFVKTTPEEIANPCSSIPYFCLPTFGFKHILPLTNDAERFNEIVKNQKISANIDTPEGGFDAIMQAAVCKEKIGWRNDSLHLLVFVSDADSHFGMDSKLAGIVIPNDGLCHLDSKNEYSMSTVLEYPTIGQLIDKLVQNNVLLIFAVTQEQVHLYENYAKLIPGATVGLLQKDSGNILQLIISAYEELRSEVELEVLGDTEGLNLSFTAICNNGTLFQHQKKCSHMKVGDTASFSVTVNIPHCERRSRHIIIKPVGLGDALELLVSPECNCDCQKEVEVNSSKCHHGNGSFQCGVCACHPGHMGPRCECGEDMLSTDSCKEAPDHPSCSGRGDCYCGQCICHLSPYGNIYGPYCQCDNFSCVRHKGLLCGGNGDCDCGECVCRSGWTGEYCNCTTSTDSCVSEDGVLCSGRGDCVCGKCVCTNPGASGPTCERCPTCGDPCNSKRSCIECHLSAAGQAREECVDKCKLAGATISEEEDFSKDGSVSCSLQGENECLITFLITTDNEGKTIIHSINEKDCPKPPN
Assay: Proximity-based integrin receptor binding assay (ALPHASCREEN) for inhibitor potency
Conditions: inhibition of binding of TGF-b1 LAP to human integrin αvβ6; values given in ranges
Recorded measurements of IC50, one per entry
QUANTITY KIND: IC50

>  <MOLECULE>
O=C(N[C@@H](CCO[C@H]1C[C@H](CCc2ccc3c(n2)NCCC3)C1)C(=O)O)O[C@H]1CCCC[C@@H]1c1ccccc1

>  <QUANTITY KIND>
IC50

>  <RESULT>
50 to 250 nM

$$$$
>  <MOLECULE>
O=C(N[C@@H](CCO[C@H]1C[C@H](CCc2ccc3c(n2)NCCC3)C1)C(=O)O)OC1CCCCC1

>  <QUANTITY KIND>
IC50

>  <RESULT>
< 50 nM

$$$$
>  <MOLECULE>
O=C(CC1CCC1)N[C@@H](CCO[C@H]1C[C@H](CCc2ccc3c(n2)NCCC3)C1)C(=O)O

>  <QUANTITY KIND>
IC50

>  <RESULT>
< 50 nM

$$$$
>  <MOLECULE>
O=C(O)C(CCOCCCCc1ccc2c(n1)NCCC2)NC(=O)[C@@H](O)c1ccccc1 (some centres unmarked) [Compound 74]

>  <QUANTITY KIND>
IC50

>  <RESULT>
> 1000 nM

$$$$
>  <MOLECULE>
O=C(N[C@@H](CCO[C@H]1C[C@H](CCc2ccc3c(n2)NCCC3)C1)C(=O)O)c1cc(F)ccc1F

>  <QUANTITY KIND>
IC50

>  <RESULT>
< 50 nM

$$$$
>  <MOLECULE>
O=C(NC(CCOCCCCc1ccc2c(n1)NCCC2)C(=O)O)C1CCC(F)(F)CC1 (centres unmarked)

>  <QUANTITY KIND>
IC50

>  <RESULT>
50 to 250 nM

$$$$
>  <MOLECULE>
CC(C)(C)C(=O)NC(CCO[C@H]1C[C@H](CCc2ccc3c(n2)NCCC3)C1)C(=O)O (some centres unmarked) [Compound 94]

>  <QUANTITY KIND>
IC50

>  <RESULT>
50 to 250 nM

$$$$
>  <MOLECULE>
CCC(CC)C(=O)N[C@@H](CCO[C@H]1C[C@H](CCc2ccc3c(n2)NCCC3)C1)C(=O)O

>  <QUANTITY KIND>
IC50

>  <RESULT>
50 to 250 nM

$$$$
>  <MOLECULE>
CC(C)(C(=O)N[C@@H](CCO[C@H]1C[C@H](CCc2ccc3c(n2)NCCC3)C1)C(=O)O)C1CCCCC1

>  <QUANTITY KIND>
IC50

>  <RESULT>
< 50 nM

$$$$
>  <MOLECULE>
O=C(N[C@@H](CCO[C@H]1C[C@H](CCc2ccc3c(n2)NCCC3)C1)C(=O)O)c1ccccn1

>  <QUANTITY KIND>
IC50

>  <RESULT>
50 to 250 nM

$$$$
>  <MOLECULE>
CC(C)(C)c1ccc(C2(C(=O)N[C@@H](CCO[C@H]3C[C@H](CCc4ccc5c(n4)NCCC5)C3)C(=O)O)CCC2)cc1

>  <QUANTITY KIND>
IC50

>  <RESULT>
< 50 nM

$$$$
>  <MOLECULE>
O=C(O)[C@H](CCOCCCCc1ccc2c(n1)NCCC2)NC(=O)[C@H](O)c1ccccc1

>  <QUANTITY KIND>
IC50

>  <RESULT>
250 to 1000 nM

$$$$
>  <MOLECULE>
O=C(N[C@@H](CCO[C@H]1C[C@H](CCc2ccc3c(n2)NCCC3)C1)C(=O)O)c1cccc(Cl)c1Cl

>  <QUANTITY KIND>
IC50

>  <RESULT>
< 50 nM

$$$$
>  <MOLECULE>
CC(=O)NC[C@H](C)OC(=O)N[C@@H](CCO[C@H]1C[C@H](CCc2ccc3c(n2)NCCC3)C1)C(=O)O

>  <QUANTITY KIND>
IC50

>  <RESULT>
< 50 nM

$$$$
>  <MOLECULE>
CC1(C(=O)NC(CCO[C@H]2C[C@H](CCc3ccc4c(n3)NCCC4)C2)C(=O)O)COC1 (some centres unmarked) [Compound 103]

>  <QUANTITY KIND>
IC50

>  <RESULT>
< 50 nM

$$$$
>  <MOLECULE>
CC(C)(C)OC(=O)N1CC(C)(OC(=O)N[C@@H](CCO[C@H]2C[C@H](CCc3ccc4c(n3)NCCC4)C2)C(=O)O)C1

>  <QUANTITY KIND>
IC50

>  <RESULT>
< 50 nM

$$$$
>  <MOLECULE>
O=C(O)C(CCO[C@H]1C[C@H](CCc2ccc3c(n2)NCCC3)C1)NC(=O)C1(c2ccccc2)CC1 (some centres unmarked) [Compound 82]

>  <QUANTITY KIND>
IC50

>  <RESULT>
250 to 1000 nM

$$$$
>  <MOLECULE>
Cn1ccc2c(C(=O)N[C@@H](CCO[C@H]3C[C@H](CCc4ccc5c(n4)NCCC5)C3)C(=O)O)ccnc21

>  <QUANTITY KIND>
IC50

>  <RESULT>
< 50 nM

$$$$
>  <MOLECULE>
O=C(N[C@@H](CCO[C@H]1C[C@H](CCc2ccc3c(n2)NCCC3)C1)C(=O)O)O[C@@H]1CCCC[C@H]1c1ccccc1

>  <QUANTITY KIND>
IC50

>  <RESULT>
250 to 1000 nM

$$$$
>  <MOLECULE>
CC1(OC(=O)N[C@@H](CCO[C@H]2C[C@H](CCc3ccc4c(n3)NCCC4)C2)C(=O)O)CC1

>  <QUANTITY KIND>
IC50

>  <RESULT>
< 50 nM

$$$$
>  <MOLECULE>
O=C(N[C@@H](CCO[C@H]1C[C@@H](CCc2ccc3c(n2)NCCC3)C1)C(=O)O)c1ccncc1

>  <QUANTITY KIND>
IC50

>  <RESULT>
250 to 1000 nM

$$$$
>  <MOLECULE>
CC1(OC(=O)N[C@@H](CCO[C@H]2C[C@H](CCc3ccc4c(n3)NCCC4)C2)C(=O)O)CNC1

>  <QUANTITY KIND>
IC50

>  <RESULT>
50 to 250 nM

$$$$
>  <MOLECULE>
CC(C)(C)OC(=O)NC(CCOCCCCc1ccc2c(n1)NCCC2)C(=O)O (centres unmarked)

>  <QUANTITY KIND>
IC50

>  <RESULT>
250 to 1000 nM

$$$$
>  <MOLECULE>
CCN(CC)C(=O)N[C@@H](CCO[C@H]1C[C@H](CCc2ccc3c(n2)NCCC3)C1)C(=O)O

>  <QUANTITY KIND>
IC50

>  <RESULT>
< 50 nM

$$$$
>  <MOLECULE>
C[C@@H](OC(=O)N[C@@H](CCO[C@H]1C[C@H](CCc2ccc3c(n2)NCCC3)C1)C(=O)O)c1ccccc1

>  <QUANTITY KIND>
IC50

>  <RESULT>
250 to 1000 nM

$$$$
>  <MOLECULE>
CC1(C(=O)NC(CCOCCCCc2ccc3c(n2)NCCC3)C(=O)O)CCOCC1 (centres unmarked)

>  <QUANTITY KIND>
IC50

>  <RESULT>
250 to 1000 nM

$$$$
>  <MOLECULE>
CC(=O)N1CC[C@H](OC(=O)N[C@@H](CCO[C@H]2C[C@H](CCc3ccc4c(n3)NCCC4)C2)C(=O)O)C1

>  <QUANTITY KIND>
IC50

>  <RESULT>
250 to 1000 nM

$$$$
>  <MOLECULE>
O=C(NC(CCO[C@H]1C[C@H](CCc2ccc3c(n2)NCCC3)C1)C(=O)O)OC1CCC1c1ccccc1 (some centres unmarked)

>  <QUANTITY KIND>
IC50

>  <RESULT>
50 to 250 nM

$$$$
>  <MOLECULE>
O=C(O)C(CCO[C@H]1C[C@H](CCc2ccc3c(n2)NCCC3)C1)NC(=O)C1(c2ccccc2)CC1 (some centres unmarked) [Compound 97]

>  <QUANTITY KIND>
IC50

>  <RESULT>
< 50 nM

$$$$
